Target: T1, Recombinant soluble E protein (0.8E-His) from DENV-3 (DENV-3, UniProt P27915 281-673)
T1 construct: also called DENV-3 E protein; DV3
property: pKd
// pKd here means minus log10 of the molar concentration (mol/L)

response.value for DG_3CH953-SG182/3CL666-SK1 (antibody, V domains shown) VH: QVQLVQSGPDVEKPGASVKVSCKASGYTFTSNYIHWVRQAPGQGLEWMGVINPRGGSRRSAQKFQGRITMTRDTSTSTVYMELSSLRSEDTAVYYCARGGRALFYDSYTTPFDGGSWWFDPWGQGSLVTVSS VL: DIQLTQSPSSLSASVGDRVTITCQASQEIRKYLNWYQQKPGKAPKLLIYDASNLKTGVPSRFSGSGSGTDFTLTISSLQPEDVATYYCQQFDDLPITFGQGTRLQIKR (field: pKd) = 11.26

So, DG_3CH1047-SG182/3CL666-SK1 (antibody, V domains shown) VH: QVQLVQSGPDVEKPGASVKVSCKASGYTFTSYYMHWVRQAPGQGLEWMGVINPRGGSRRSAQKFQGRITMTRDTSTSTVYMELSSLRSEDTAVYYCARGGEALFYDSYTTPFDGGSWWFDPWGQGSLVTVSS VL: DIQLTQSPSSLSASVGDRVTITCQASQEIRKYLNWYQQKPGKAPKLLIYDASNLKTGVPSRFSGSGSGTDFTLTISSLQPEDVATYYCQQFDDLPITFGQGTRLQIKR ? Its pKd was 10.38

Field pKd (entry DG_3CH1049-SG182/3CL119-SK1 (antibody, V domains shown) VH: QVQLVQSGAEVKKPGASVKVSCKASGYTFTSYYMHWVRQAPGQGLEWMGVINPRGGSRRSAQKFQGRVTMTRDTSTSTVYMELSSLRSEDTAVYYCARGGEALFYDSYTTPFDGGSWWFDPWGQGSLVTVSS VL: DIQLTQSPSSLSASVGDRVTFTCQASQEIRKYLNWYQQKPGKAPKLLIYDASNLKTGVPSRFSGSGSGTDFTFTISSLQPEDVATYYCQQFDDLPITFGQGTRLQIKR ) reads 11.29

Reported pKd ( DG_3CH987-SG182/3CL-SK1 (antibody, V domains shown) VH: QVQLVQSGPDVEKPGASVKVSCKASGYTFTSYYIHWVRQAPGQGLEWMGVINPRGGSRRSAQKFQGRITMTRDTSTSTVYMELSSLRSEDTAVYYCARGGRALFYDSYTTPFDGGSWWFDPWGQGSLVTVSS VL: DIQLTQSPSSLSASVGDRVTFTCQASQDIRKYLNWYQQKPGKAPKLLIYDASNLKTGVPSRFSGSGSGTDFTFTISSLQPEDVATYYCQQFDDLPITFGQGTRLQIKR ) = 12.01

Consider DG_3CH1046-SG182/3CL119-SK1 (antibody, V domains shown) VH: QVQLVQSGAEVKKPGASVKVSCKASGYTFTSYYMHWVRQAPGQGLEWMGVINPRGGSRRSAQKFQGRVTMTRDTSTSTVYMELSSLRSEDTAVYYCARGGRALFYDSYTTPFDGGSWWFDPWGQGSLVTVSS VL: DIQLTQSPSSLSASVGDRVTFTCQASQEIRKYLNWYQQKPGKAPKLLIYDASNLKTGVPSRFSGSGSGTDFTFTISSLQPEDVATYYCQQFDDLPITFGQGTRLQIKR . Its measured pKd is 11.56
